Taken from patent US5391571A.

System: cholesterol absorption
Test: in vivo cholesterol absorption study, serum radioactivity after oral [4-^14C] cholesterol
Conditions: Rattus norvegicus, 6 h, normal rats, serum radioactivity at six hours, read-out: ED50 (effective dose inhibiting fifty percent of the cholesterol absorption of the control animals)
measurement.kind: ED50

| molecule | result |
| --- | --- |
| CC1CCN(C(=O)Oc2ccc(Oc3ccccc3)cc2)CC1 [Example 8] | 10 mg/kg |
| O=C(NCCCCc1ccccc1)Oc1ccc(Oc2ccccc2)cc1 [Example 3] | 6 mg/kg |
| O=C(Oc1ccc(Oc2ccccc2)cc1)N1CCCCC1 [Example 2] | 24 mg/kg |
| CC(C)CCCC(C)NC(=O)Oc1ccc(Oc2ccccc2)cc1 (stereo not drawn) [Example 4] | 13 mg/kg |
| CCCCNC(=O)Oc1ccc(Oc2ccccc2)cc1 [Example 1, Butylcarbamic acid 4-phenoxyphenyl ester] | 24 mg/kg |
| O=C(Oc1ccc(Oc2ccccc2)cc1)N1CCSCC1 [Example 10] | 14 mg/kg |

====

Target: cholesterol esterase (EC 3.1.1.13) (Bos taurus, UniProt P30122)
Sequence (P30122 19-597): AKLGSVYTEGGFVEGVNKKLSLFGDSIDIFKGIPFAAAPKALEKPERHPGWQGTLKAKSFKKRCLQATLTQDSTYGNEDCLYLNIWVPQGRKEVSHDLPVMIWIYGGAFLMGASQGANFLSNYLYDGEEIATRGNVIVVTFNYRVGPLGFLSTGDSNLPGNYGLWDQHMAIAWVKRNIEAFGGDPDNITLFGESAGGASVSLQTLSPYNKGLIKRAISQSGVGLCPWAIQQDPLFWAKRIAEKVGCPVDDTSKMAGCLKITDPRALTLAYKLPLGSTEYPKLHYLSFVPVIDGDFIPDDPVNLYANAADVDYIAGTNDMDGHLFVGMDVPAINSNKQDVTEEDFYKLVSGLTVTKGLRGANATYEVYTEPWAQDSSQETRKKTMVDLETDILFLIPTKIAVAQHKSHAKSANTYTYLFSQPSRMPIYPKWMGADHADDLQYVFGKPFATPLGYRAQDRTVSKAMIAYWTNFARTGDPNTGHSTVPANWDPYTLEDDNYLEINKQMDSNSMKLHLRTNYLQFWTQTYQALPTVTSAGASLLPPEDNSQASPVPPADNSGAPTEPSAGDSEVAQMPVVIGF
pIC50: −log10 of the molar value.
Outcome label depends on pIC50 relative to 5: at/above gives label 1, below gives label 0.

| molecule | category.label |
| --- | --- |
| O=C(O)C1CCN(C(=O)Oc2ccc(Oc3ccccc3)cc2)CC1 [Example 46] | label 0 |
| CCCCCCNC(=O)Oc1ccc(Oc2ccccc2)cc1 [Example 36, Hexylcarbamic acid 4-phenoxyphenyl ester] | label 1 |
| CC1CCN(C(=O)Oc2ccc(Oc3ccc(Cl)cc3)cc2)CC1 [Example 25] | label 1 |
| O=C(Oc1ccc(Oc2ccccc2)cc1)N1CCOCC1 [Example 7] | label 0 |
| Cc1ccc(Oc2ccc(OC(=O)N3CCC(C)CC3)cc2)cc1 [Example 23] | label 1 |
| O=C(NC1CCCCC1)Oc1ccc(Oc2ccccc2)cc1 [Example 13] | label 1 |
| O=C(Oc1ccc(Oc2ccccc2)cc1)N1CCC(c2ccccc2)CC1 [Example 5] | label 0 |
| O=C(Oc1ccc(Oc2ccccc2)cc1)N1CCC(CO)CC1 [Example 56] | label 1 |
| CC(C)CCCC(C)NC(=O)Oc1ccc(Oc2ccccc2)cc1F (stereo not drawn) [Example 37] | label 1 |
| CCCCCCN(CCCCCC)CC1CCN(C(=O)Oc2ccc(Oc3ccccc3)cc2)CC1 [Example 62] | label 0 |
| CCCCNC(=O)Oc1ccc(Oc2ccccc2)cc1F [Example 28] | label 1 |
| CCN(CC)CC1CCN(C(=O)Oc2ccc(Oc3ccccc3)cc2)CC1 [Example 60] | label 0 |
| CCCCCC(C)NC(=O)Oc1ccc(Oc2ccccc2)cc1 (stereo not drawn) [Example 26] | label 1 |
| CC1(C)CCN(C(=O)Oc2ccc(Oc3ccccc3)cc2)CC1 [Example 38] | label 1 |
| CC1CCN(C(=O)Oc2ccc(Oc3ccccc3)cc2F)CC1 [Example 41] | label 1 |
| O=C(Oc1ccc(Oc2ccccc2)cc1)N1CCC(CBr)CC1 [Example 57] | label 1 |
| Cc1ccc(Oc2ccc(OC(=O)NC(C)CCCC(C)C)cc2)cc1 (stereo not drawn) [Example 24] | label 1 |
| O=C(Oc1ccc(Oc2ccccc2)cc1)N1CCC(O)CC1 [Example 44] | label 1 |
| CC1CCN(C(=O)Oc2ccc(Oc3ccccc3)cc2C#N)CC1 [Example 54] | label 1 |
| O=C(Oc1ccc(Oc2ccccc2)cc1)N1CCC(CI)CC1 [Example 59] | label 1 |
| O=C(Oc1ccc(Oc2ccccc2)cc1)N1CCN(c2ccccc2)CC1 [Example 6] | label 0 |
| O=C(Oc1ccc(Oc2ccccc2)cc1)N1CCCCCC1 [Example 40] | label 0 |
| CCCCNC(=O)Oc1ccc(Oc2ccc(C)cc2)cc1 [Example 19] | label 1 |
| O=C(Oc1ccc(Oc2ccccc2)cc1)N1CCCC1 [Example 12] | label 1 |
| COc1ccc(Oc2ccc(OC(=O)NC(C)CCCC(C)C)cc2)cc1 (stereo not drawn) [Example 31] | label 0 |
| CCCCNC(=O)Oc1ccc(Oc2ccc(C(C)(C)C)cc2)cc1 [Example 32] | label 0 |
| CC(=O)OC1CCN(C(=O)Oc2ccc(Oc3ccccc3)cc2)CC1 [Example 48] | label 1 |
| CC1CCN(C(=O)Oc2ccc(Oc3ccccc3)cc2C(=O)O)CC1 [Example 55] | label 0 |
| CCCC1CCN(C(=O)Oc2ccc(Oc3ccccc3)cc2)CC1 [Example 45] | label 1 |
| CC1CCCN(C(=O)Oc2ccc(Oc3ccccc3)cc2)C1 (stereo not drawn) [Example 39] | label 1 |
| CC1(C)CCCN(C(=O)Oc2ccc(Oc3ccccc3)cc2)C1 [Example 47] | label 1 |
| CCC1CCN(C(=O)Oc2ccc(Oc3ccccc3)cc2)CC1 [Example 42] | label 1 |
| COc1ccc(Oc2ccc(OC(=O)N3CCC(C)CC3)cc2)cc1 [Example 30] | label 1 |
| CN1CCN(C(=O)Oc2ccc(Oc3ccccc3)cc2)CC1 [Example 9] | label 0 |
| O=C(Oc1ccc(Oc2ccccc2)cc1)N1CCCCC1 [Example 2] | label 1 |
| CCCCNC(=O)Oc1ccc(Oc2ccccc2)cc1 [Example 1, Butylcarbamic acid 4-phenoxyphenyl ester] | label 1 |

====

log10(IC50), cholesterol esterase (EC 3.1.1.13) (Bos taurus), per-entry values.
measurement.kind: log10(IC50) (log10 of the value in µM)

| compound | measurement.kind | measured.number |
| --- | --- | --- |
| CCCCCCCC/C=C\CCCCCCCCNC(=O)Oc1ccc(Oc2ccccc2)cc1 [Example 67] | log10(IC50) | 2.80 |
| CC(C)C1CCN(C(=O)Oc2ccc(Oc3ccccc3)cc2)CC1 [Example 51] | log10(IC50) | -0.60 |
| CCCCNC(=O)Oc1ccc(Oc2ccccc2)cc1C(=O)OC [Example 50] | log10(IC50) | 0.71 |
| CCCCCCCCNC(=O)Oc1ccc(Oc2ccccc2)cc1 [Example 11, Octylcarbamic acid 4phenoxyphenyl ester] | log10(IC50) | 1.30 |
| CC(C)CCCC(C)NC(=O)Oc1ccc(Oc2ccccc2)cc1 (centres unmarked) [Example 4] | log10(IC50) | 0.70 |
| CC(C)CCCC(C)NC(=O)Oc1ccc(Oc2ccc(Cl)cc2)cc1 (centres unmarked) [Example 27] | log10(IC50) | 0.85 |
| CCCCNC(=O)Oc1ccc(Oc2ccc(OC)cc2)cc1 [Example 29] | log10(IC50) | 1.11 |
| CCCCCCCCCCCCOC(=O)c1cc(Oc2ccccc2)ccc1OC(=O)N1CCC(C)CC1 [Example 58] | log10(IC50) | -0.47 |
| O=C(NC12CC3CC(CC(C3)C1)C2)Oc1ccc(Oc2ccccc2)cc1 [Example 15] | log10(IC50) | 1.24 |
| CCCCNC(=O)Oc1ccc(Oc2ccc(Cl)cc2)cc1 [Example 21] | log10(IC50) | 0.79 |
| O=C(Oc1ccc(Oc2ccccc2)cc1)N1CCSCC1 [Example 10] | log10(IC50) | 0.04 |
| O=C(NCCCCc1ccccc1)Oc1ccc(Oc2ccccc2)cc1 [Example 3] | log10(IC50) | 1.20 |
| CCOC(=O)C1CCN(C(=O)Oc2ccc(Oc3ccccc3)cc2)CC1 [Example 43] | log10(IC50) | 0.65 |
| CC(C)CC(C)NC(=O)Oc1ccc(Oc2ccccc2)cc1 (centres unmarked) [Example 18] | log10(IC50) | 1.22 |
| COC(=O)c1cc(Oc2ccccc2)ccc1OC(=O)N1CCC(C)CC1 [Example 49] | log10(IC50) | -0.47 |
| O=C(Oc1ccc(Oc2ccccc2)cc1)N1CCC2(CCCC2)CC1 [Example 52] | log10(IC50) | -0.12 |

====

IC50, cholesterol esterase (EC 3.1.1.13) (Bos taurus, UniProt P30122), per-entry values.

| molecule | IC50, µM |
| --- | --- |
| CCCCC(CC)NC(=O)Oc1ccc(Oc2ccccc2)cc1 (stereo not drawn) | 13.3 |
| O=C(NCC1CCCCC1)Oc1ccc(Oc2ccccc2)cc1 | 9.3 |
| CCCCNC(=O)Oc1ccc(Oc2ccc([N+](=O)[O-])cc2)cc1 | 7.6 |
